# measurement target: Protein Mdm4 (Homo sapiens) + E3 ubiquitin-protein ligase Mdm2 (Homo sapiens) (UniProt O15151+Q00987)
# Sequence (O15151 whole entry, looked up): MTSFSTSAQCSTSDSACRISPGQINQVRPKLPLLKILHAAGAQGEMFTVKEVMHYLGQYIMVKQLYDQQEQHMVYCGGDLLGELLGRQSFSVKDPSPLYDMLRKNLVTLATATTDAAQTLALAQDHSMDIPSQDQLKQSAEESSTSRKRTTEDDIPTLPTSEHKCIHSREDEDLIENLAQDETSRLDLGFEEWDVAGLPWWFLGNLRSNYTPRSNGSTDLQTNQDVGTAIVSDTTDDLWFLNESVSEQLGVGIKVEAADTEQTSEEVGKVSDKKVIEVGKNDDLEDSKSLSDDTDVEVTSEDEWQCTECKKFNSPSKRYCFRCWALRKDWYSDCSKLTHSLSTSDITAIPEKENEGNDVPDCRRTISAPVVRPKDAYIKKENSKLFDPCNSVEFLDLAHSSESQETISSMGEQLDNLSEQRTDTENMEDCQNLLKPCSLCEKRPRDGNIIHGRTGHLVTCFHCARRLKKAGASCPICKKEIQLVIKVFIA
# Sequence (Q00987 whole entry, looked up): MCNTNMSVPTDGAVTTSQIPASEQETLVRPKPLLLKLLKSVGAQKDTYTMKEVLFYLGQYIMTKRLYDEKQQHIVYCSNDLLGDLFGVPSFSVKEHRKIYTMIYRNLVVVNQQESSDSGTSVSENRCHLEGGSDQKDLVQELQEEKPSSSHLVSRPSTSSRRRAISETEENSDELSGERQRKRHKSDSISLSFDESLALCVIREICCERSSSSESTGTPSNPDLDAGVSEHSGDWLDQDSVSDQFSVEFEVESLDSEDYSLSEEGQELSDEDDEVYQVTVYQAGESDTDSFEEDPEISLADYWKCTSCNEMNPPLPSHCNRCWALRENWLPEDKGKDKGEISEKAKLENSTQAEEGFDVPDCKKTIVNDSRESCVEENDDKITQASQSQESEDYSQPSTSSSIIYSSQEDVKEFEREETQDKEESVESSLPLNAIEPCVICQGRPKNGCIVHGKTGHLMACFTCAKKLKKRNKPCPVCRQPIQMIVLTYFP
# run description: inhibitors of human Mdm2-MdmX association, primary screen, cell-based, luminescence, split luciferase, SaOS-2, uHTS (AID 485346)
# recorded conditions: SaOS-2 split-luciferase Mdm2/MdmX complementation, at 8 µM
Hit rate of the full screen: of about 330,000 compounds, about 10,000 (3%) were called active.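 How the source made its calls: active means inhibition of at least 50% at 8 µM in the primary screen; inactive means the rest.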 What follows is part of a selection rich in actives, with near analogues and random picks from the rest.
Returns: one label drawn from active, inactive

molecule: CCN1C(=O)c2cccc3c(S(=O)(=O)Nc4ccccc4O)ccc1c23
assigned label: active
--
molecule: O=C(Nc1cccc(-c2cscn2)c1)C1CCN(Cc2ccsc2)CC1
assigned label: inactive
--
molecule: CC(C)=CCc1c(O)c(CC=C(C)C)c2occ(-c3ccc(O)cc3)c(=O)c2c1O
assigned label: inactive
--
molecule: Cc1nnnn1/C(=C\c1ccccc1)C(=O)OCC(=O)N1CC2(C)CC1CC(C)(C)C2 (stereo unspecified)
assigned label: active
--
molecule: N#CC1=C(N)OC2=C(C(=O)CCC2)C1C1CC=CCC1 (stereo unspecified)
assigned label: inactive

Q. Record request — test call for COc1ccc(C(=O)N2CC3(C)CC2CC(C)(C)C3)cc1OC (stereo unspecified)
A. inactive

Q. Fill in: this test's call for Cc1nn(-c2ccccc2)c2sc(C(=O)N(Cc3ccco3)C(C)C(=O)NC(C)(C)C)cc12 (stereo unspecified) is ___
A. active

Q. Check the results log: what was the call for CCOC(=O)C1C(c2ccc(OC)c(OC)c2)c2c([nH][nH]c2=O)CC1(C)O (stereo unspecified) ?
A. inactive
